molecular target: purified recombinant human p38 alpha MAPK (Homo sapiens, UniProt Q16539); construct: purchased Millipore, USA; assay: Inhibition of p38 alpha MAPK activity, TR-FRET kinase assay; type: biochemical; details: Concentration 1 μM; read-out: P38α Inhibition
Sequence (Q16539 whole entry): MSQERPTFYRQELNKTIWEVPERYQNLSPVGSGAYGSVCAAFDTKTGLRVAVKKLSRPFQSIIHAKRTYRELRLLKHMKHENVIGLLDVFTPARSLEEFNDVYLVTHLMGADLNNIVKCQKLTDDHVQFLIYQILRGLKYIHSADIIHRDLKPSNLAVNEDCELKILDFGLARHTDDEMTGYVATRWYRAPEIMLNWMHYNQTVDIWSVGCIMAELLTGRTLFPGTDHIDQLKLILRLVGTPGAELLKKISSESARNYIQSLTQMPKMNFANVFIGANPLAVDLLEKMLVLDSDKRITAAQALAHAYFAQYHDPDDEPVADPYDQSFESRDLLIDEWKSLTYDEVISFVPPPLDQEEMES
Catalogue of molecules with associated inhibition at 1 µM

>>> reading("Cc1ccc(-n2nc(C(C)(C)C)cc2NC(=O)Nc2ccc(OCCN3CCn4c(nnc4-c4ccccc4OCCO)C3)c3c2CCC3)cc1")
"80 to 100%"

stdin: Provide inhibition at 1 µM value for the following molecule: CCOC(=O)c1c(NC(=O)C2CC2)sc2c1CCN(C(=O)COc1ccc(NC(=O)Nc3cc(C(C)(C)C)nn3-c3ccc(C)cc3)c3c1CCC3)C2
stdout: < 20%

stdin: Specify measured inhibition at 1 µM for Cc1ccc(-n2nc(C(C)(C)C)cc2NC(=O)Nc2ccc(OCCN3CCn4c(nnc4-c4cccc(O)c4)C3)c3c2CCC3)cc1 .
stdout: 80 to 100%

stdin: Give the measured inhibition at 1 µM for CCCCN1CCN(CCOc2ccc(NC(=O)Nc3cc(C(C)(C)C)cc(NS(C)(=O)=O)c3OC)c3c2CCC3)CC1=O
stdout: 80 to 100%

stdin: Output inhibition at 1 µM of CCS(=O)(=O)Nc1cc(C(C)(C)C)cc(NC(=O)Nc2ccc(OCCN3CCn4c(nnc4-c4cc(Cl)ccc4O)C3)c3c2CCC3)c1OC
stdout: 80 to 100%

stdin: Please indicate inhibition at 1 µM recorded for Cc1ccc(-n2nc(C(C)(C)C)cc2NC(=O)Nc2ccc(OCCN3CCn4c(nnc4-c4ccc(O)cc4)C3)c3c2CCC3)cc1
stdout: 80 to 100%

stdin: Item COc1c(NC(=O)Nc2ccc(OCCN3CCn4c(nnc4C4CCCCC4)C3)c3c2CCC3)cc(C(C)(C)C)cc1NS(C)(=O)=O : provide inhibition at 1 µM
stdout: 40 to 60%

stdin: Give the reported inhibition at 1 µM for this molecule. COc1ccccc1-c1nnc2n1CCN(C(=O)COc1ccc(NC(=O)Nc3cc(C(C)(C)C)nn3-c3ccc(O)c(Cl)c3)c3c1CCC3)C2
stdout: 80 to 100%

stdin: Note inhibition at 1 µM for the molecule shown: CSc1ccccc1-c1nnc2n1CCN(CCOc1ccc(NC(=O)Nc3cc(C(C)(C)C)nn3-c3ccc(C)cc3)c3c1CCC3)C2
stdout: 80 to 100%
